Values compiled from ChEMBL document CHEMBL1154939.

# UniProt:P33535: Ki values follow
# Sequence (P33535 whole entry): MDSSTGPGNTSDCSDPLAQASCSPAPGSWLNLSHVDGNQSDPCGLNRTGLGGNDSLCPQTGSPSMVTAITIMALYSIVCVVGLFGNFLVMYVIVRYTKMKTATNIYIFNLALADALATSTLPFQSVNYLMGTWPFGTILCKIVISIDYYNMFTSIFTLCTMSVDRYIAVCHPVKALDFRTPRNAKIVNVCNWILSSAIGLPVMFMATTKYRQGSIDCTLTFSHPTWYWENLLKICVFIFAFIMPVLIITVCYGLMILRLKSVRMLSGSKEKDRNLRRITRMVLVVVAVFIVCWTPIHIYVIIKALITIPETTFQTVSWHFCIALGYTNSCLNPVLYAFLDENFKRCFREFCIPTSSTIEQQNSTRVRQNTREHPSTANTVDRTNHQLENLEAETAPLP
Numbered stars: 1 amine (or outer) side, 2 acyl side, 3 side chain; on linkers, the order of the positions; unused ones are H or OH. Bridge positions count the residues as written; N and C are the ends. Square brackets hold non-standard residues; d marks the D form. Peptide text beside a SMILES is read from it. I, II: the chains in the order shown. Dmt = Cc1cc(O)cc(C)c1C[C@H](N)C(=O)O; Ethylenediamine = C(CN[*:2])N[*:1]; Tic = O=C(O)[C@@H]1Cc2ccccc2CN1

compound: Cc1cc(O)cc(C)c1C[C@H](N)C(=O)N1Cc2ccccc2C[C@H]1C(=O)NCCN(CCNC(=O)[C@@H]1Cc2ccccc2CN1C(=O)[C@@H](N)Cc1c(C)cc(O)cc1C)CCNC(=O)[C@@H]1Cc2ccccc2CN1C(=O)[C@@H](N)Cc1c(C)cc(O)cc1C
Ki / nM: 7.78

compound: Cc1cc(O)cc(C)c1C[C@H](N)C(=O)N[C@@H]1Cc2c([nH]c3ccccc23)CN(CC(=O)NCc2ccc(CNC(=O)CN3Cc4[nH]c5ccccc5c4C[C@@H](NC(=O)[C@@H](N)Cc4c(C)cc(O)cc4C)C3=O)cc2)C1=O
Ki / nM: 177

compound: Cc1cc(O)cc(C)c1C[C@H](N)C(=O)N1Cc2ccccc2C[C@H]1C(=O)NCCNC(=O)[C@@H]1Cc2ccccc2CN1C(=O)[C@@H](N)Cc1c(C)cc(O)cc1C (I: H-[Dmt]-[Tic] / II: H-[Dmt]-[Tic]; linker I:C-II:C via Ethylenediamine)
Ki / nM: 10.2

compound: Cc1cc(O)cc(C)c1C[C@H](N)C(=O)N[C@@H]1Cc2c([nH]c3ccccc23)CN(CC(=O)NCCNC(=O)CN2Cc3[nH]c4ccccc4c3C[C@@H](NC(=O)[C@@H](N)Cc3c(C)cc(O)cc3C)C2=O)C1=O
Ki / nM: 139

compound: Cc1cc(O)cc(C)c1C[C@H](N)C(=O)N1Cc2ccccc2C[C@H]1C(=O)O (H-[Dmt]-[Tic]-OH)
Ki / nM: 3.32
